Data origin: the supplement of paper PMC9112550

Let's look at some sequences and their measured shrunken log2 fold change.
Test system: Escherichia coli TOP10;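 further: peptides expressed intracellularly from a pBAD plasmid library in pooled LB shake-flask culture, induced with 0.3% L-arabinose, DNA abundance read by NGS, three biological replicates, DESeq2 with apeglm shrinkage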
Assay: shrunken log2 fold change of peptide-encoding DNA abundance (4.5 h post-induction vs induction); higher = less antimicrobial activity (less host growth inhibition)
Settings: time post-induction: 4.5 h; library: site-saturation at positions 5, 18, 19, 20
property name: shrunken log2 fold change

| sequence | property name | measured result |
| --- | --- | --- |
| RRIRMRPPRLPRPRPRPMCCPRP | shrunken log2 fold change | 0.207 |
| RRIRARPPRLPRPRPRPHMYPRP | shrunken log2 fold change | -0.149 |
| RRIRERPPRLPRPRPRPFRPPRP | shrunken log2 fold change | -0.179 |
| RRIRNRPPRLPRPRPRPSQIPRP | shrunken log2 fold change | -0.664 |
| RRIRWRPPRLPRPRPRPDVMPRP | shrunken log2 fold change | 0.126 |
| RRIRMRPPRLPRPRPRPKQFPRP | shrunken log2 fold change | 0.255 |
| RRIRIRPPRLPRPRPRPFGIPRP | shrunken log2 fold change | -0.972 |
| RRIRHRPPRLPRPRPRPCNFPRP | shrunken log2 fold change | -0.74 |
| RRIRMRPPRLPRPRPRPTEDPRP | shrunken log2 fold change | 1.9 |
| RRIRCRPPRLPRPRPRPEENPRP | shrunken log2 fold change | 0.602 |
| RRIRGRPPRLPRPRPRPNDRPRP | shrunken log2 fold change | 0.288 |
| RRIRNRPPRLPRPRPRPFWIPRP | shrunken log2 fold change | 0.0948 |
| RRIRGRPPRLPRPRPRPDHVPRP | shrunken log2 fold change | 0.0598 |
| RRIRKRPPRLPRPRPRPDLCPRP | shrunken log2 fold change | 0.741 |
| RRIRRRPPRLPRPRPRPMCNPRP | shrunken log2 fold change | 0.0275 |
